- Test system: IL-1β production in PMA-differentiated THP-1 cells
- ASSAY_REMARKS: IL-1β production in PMA-differentiated THP-1 cells stimulated with gramicidin (hTHP-1 assay containing 2% fetal bovine serum; Procedures 1-3)
- Assay type: cell-based, human
- STUDY_CONDITIONS: Homo sapiens, THP-1, hTHP-1 assay containing 2% fetal bovine serum; class symbols; read-out: hTHP-1 IC50 (Average IC50 of compounds in hTHP-1 assay)
MEASUREMENT_LABEL: IC50

1. CC(C)c1cc(F)cc(C(C)C)c1CC(=O)NS(=N)(=O)c1ccc(C(C)(C)O)cc1 (single isomer, unassigned)    1000 to 5000 nM
2. CC(C)c1cc2c(c(C(C)C)c1CC(=O)N=S(N)(=O)c1ccn(C(C)C)n1)COC2 (stereo not drawn) [Example 221]    5000 to 30000 nM
3. CC(C)c1cc(C#N)cc(C(C)C)c1CC(=O)N=S(N)(=O)c1ccc(CN(C)C)cc1 (single isomer, unassigned) [Example 72]    1000 to 5000 nM
4. COCc1cc(C(C)C)c(CC(=O)N=S(N)(=O)c2cc(C(C)(C)O)cs2)c(C(C)C)n1 (stereo not drawn)    200 to 1000 nM
5. CC(C)c1cc(-c2ccc3c(c2)CCOC3)cc(C(C)C)c1CC(=O)N=S(N)(=O)c1cnc(C(C)(C)O)s1 (stereo not drawn)    200 to 1000 nM
6. CC(C)c1cc(F)cc(C(C)C)c1CC(=O)N[S@](=N)(=O)c1ncc(C(C)(C)O)s1 (single isomer, unassigned)    1000 to 5000 nM
7. CC(C)c1cc(-c2ccc3ccccc3c2)cc(C(C)C)c1CC(=O)N=S(N)(=O)c1cnc(C(C)(C)O)s1 (stereo not drawn)    8 to 40 nM
8. CC(C)c1cc(F)cc(C2CCOC2)c1CC(=O)N=S(N)(=O)c1cnc(C(C)(C)O)s1 (stereo not drawn)    5000 to 30000 nM
9. CCc1cc(C#N)cc(C(C)C)c1CC(=O)N=S(N)(=O)c1ccc(CN(C)C)cc1 (stereo not drawn) [Example 30]    5000 to 30000 nM
10. Cc1sc(S(N)(=O)=NC(=O)Cc2c(C(C)C)ccc(F)c2C(C)C)cc1C(C)(C)O (stereo not drawn)    40 to 200 nM
11. CC(C)(O)c1ncc(S(N)(=O)=NC(=O)Cc2c(C3CC3)cc(F)cc2C(F)(F)F)s1 (stereo not drawn) [Example 98]    5000 to 30000 nM
12. CC(C)c1ccc(F)c(C(C)C)c1CC(=O)N=S(N)(=O)c1ccc2c(cnn2C)c1 (stereo not drawn) [Example 90]    5000 to 30000 nM
13. CC(C)(O)c1ncc(S(N)(=O)=NC(=O)Cc2c(C3CC3)cc(F)cc2C(F)(F)F)s1 (single isomer, unassigned) [Example 196]    5000 to 30000 nM
14. CC(C)c1cc(F)cc(C(C)C)c1CC(=O)N=S(N)(=O)c1sc(C(C)(C)O)cc1F (stereo not drawn)    8 to 40 nM
15. CC(C)c1cc(COC2CCCC2)cc(C(C)C)c1CC(=O)N=S(N)(=O)c1cnc(C(C)(C)O)s1 (stereo not drawn)    40 to 200 nM

Data origin: patent US11370763B2
